system: HOP-92 NSCLC; assay: NCI tumour cell line growth inhibition, 48 h
Measurement kind: GI50

// worked examples, GI50 included
[
  {
    "Smiles entry": "CN[C@@H](C)C(=O)N[C@H](C(=O)N1CCC[C@H]1c1nc(C(=O)c2ccc(F)cc2)cs1)C1CCCCC1",
    "Target": "HOP-92 NSCLC",
    "Measurement kind": "GI50",
    "Observed result": "2.8 µM"
  },
  {
    "Smiles entry": "CNc1c2ccccc2nc2occ(Cl)c12",
    "Target": "HOP-92 NSCLC",
    "Measurement kind": "GI50",
    "Observed result": "26.9 µM"
  }
]

[in] Form field: reported GI50 of Nc1[nH]nc(Nc2ccccc2)c1-c1nc2ccccc2s1
[out] 1.4 µM

[in] Moving on to the next compound: COc1ccc(CCN2CCCn3c2nc2ccccc2c3=O)cc1
[out] 3.33 µM
